Molecular target: A1R allosteric site (A1R-FlpINCHO cells, wild type) (Homo sapiens)
Sequence (P30542 whole entry): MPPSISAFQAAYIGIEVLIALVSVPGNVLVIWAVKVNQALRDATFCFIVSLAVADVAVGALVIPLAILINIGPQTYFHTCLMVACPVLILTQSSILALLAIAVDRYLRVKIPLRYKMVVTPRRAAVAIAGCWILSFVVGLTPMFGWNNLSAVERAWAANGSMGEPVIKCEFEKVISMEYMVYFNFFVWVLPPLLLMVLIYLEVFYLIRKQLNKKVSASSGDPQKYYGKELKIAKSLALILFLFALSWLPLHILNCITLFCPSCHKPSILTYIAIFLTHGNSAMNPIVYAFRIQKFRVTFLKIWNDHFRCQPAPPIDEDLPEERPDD
Experiment: Whole-cell [3H]DPCPX interaction binding with NECA, allosteric ternary complex model
Conditions: approximate, from pKB; read-out: affinity for the A1R allosteric site
pKd: −log10 of the molar value.
READOUT NAME: pKd

COMPOUND | SYSTEM TESTED | RECORDED RESULT
Nc1nc(-c2cccc3ccccc23)cs1 [compound 12] | A1R allosteric site (A1R-FlpINCHO cells, wild type) (Homo sapiens) | ~4.60

query: Provide pKd value for the following compound: Nc1scc(-c2cc(C(F)(F)F)cc(C(F)(F)F)c2)c1C(=O)c1ccc(Cl)cc1 [compound 1, reference compound]
result: ~5.10

* * *

Test system: A1R-mediated rat atrial beat rate
Assay: Isolated rat atria: NECA-mediated decrease in contractile rate
Conditions: approximate, read-out: potency (EC50) for inhibition in rat atrial beat rate
READOUT NAME: EC50

query: Provide EC50 value for the following compound: CCNC(=O)[C@H]1O[C@@H](n2cnc3c(N)ncnc32)[C@H](O)[C@@H]1O [NECA, 5′-N-ethylcarboxamidoadenosine]
result: ~130 nM

* * *

Target: A1R (A1R-FlpInCHO cells) (Homo sapiens, UniProt P30542)
Sequence (P30542 whole entry): as above
Test: Whole-cell [3H]DPCPX competition binding: NECA affinity in absence or presence of compound
Details: 30 μM compound, [3H]DPCPX competition binding, A1R-FlpINCHO cells
Protocol: [^3H]DPCPX (8-cyclopentyl-1,3-dipropylxanthine, [dipropyl-2,3-^3H(N)]) whole-cell binding assays were performed on FlpINCHO cells stably expressing either WT (nontagged or 3xHA-tagged) or mutant 3xHA-A1R. […] Assays were terminated by washing twice with 100 μL/well cold phosphate-buffered saline, followed by the addition of 100 μL OptiPhase Supermix™ scintillation cocktail and bound radioactivity measured using a MicroBeta^2 ™ plate counter (PerkinElmer). […]

RECORD SMILES | effect on NECA affinity (pKI)
Cc1ccc(C(=O)c2c(N)sc(C)c2C)cc1 | significantly enhanced
Nc1ccc(Cl)cc1C(=O)c1ccc(F)cc1 | significantly enhanced
CCCc1sc(N)nc1-c1ccc(C)cc1C | significantly enhanced
Nc1nc(-c2cccc3ccccc23)cs1 | significantly enhanced
